Items are presented alongside their recorded molar heat capacity at constant pressure.
- Assay name: molar heat capacity at constant pressure
- Protocol conditions: 298.15 K; 101.33 kPa; Liquid; Small sample (50 mg) DSC
Your answer is read as J/K/mol, so omit the unit and give the number.

[[record]]
compound = "CCCCn1cc[n+](C)c1.F[B-](F)(F)F [1-butyl-3-methylimidazolium tetrafluoroborate]"
reported_endpoint = "molar heat capacity at constant pressure"
reported = 351.5

[[record]]
compound = "CCCCn1cc[n+](C)c1.O=S(=O)([O-])C(F)(F)F [1-butyl-3-methylimidazolium trifluoromethanesulfonate]"
reported_endpoint = "molar heat capacity at constant pressure"
reported = 417.2

[[record]]
compound = "CCCCn1cc[n+](C)c1.N#CN=C=[N-] [1-butyl-3-methylimidazolium dicyanamide]"
reported_endpoint = "molar heat capacity at constant pressure"
reported = 364.6

[[record]]
compound = "CCCCn1cc[n+](C)c1.[Cl-] [1-butyl-3-methylimidazolium chloride]"
reported_endpoint = "molar heat capacity at constant pressure"
reported = 322.7

[[record]]
compound = "CCCCn1cc[n+](C)c1.[Br-] [1-butyl-3-methylimidazolium bromide]"
reported_endpoint = "molar heat capacity at constant pressure"
reported = 316.7

[[record]]
compound = "CCC[n+]1ccn(C)c1C.O=S(=O)([N-]S(=O)(=O)C(F)(F)F)C(F)(F)F"
reported_endpoint = "molar heat capacity at constant pressure"
reported = 554.5

[[record]]
compound = "CCCC[n+]1ccn(C)c1.O=S(=O)([N-]S(=O)(=O)C(F)(F)F)C(F)(F)F"
reported_endpoint = "molar heat capacity at constant pressure"
reported = 536.3

[[record]]
compound = "CCCCn1cc[n+](C)c1.F[P-](F)(F)(F)(F)F [1-butyl-3-methylimidazolium hexafluorophosphate]"
reported_endpoint = "molar heat capacity at constant pressure"
reported = 397.6

[[record]]
compound = "CCCCn1cc[n+](C)c1C.F[P-](F)(F)(F)(F)F [1-butyl-2,3-dimethylimidazolium hexafluorophosphate]"
reported_endpoint = "molar heat capacity at constant pressure"
reported = 433.6


[Q] Item under review: CCn1cc[n+](C)c1.O=S(=O)([N-]S(=O)(=O)C(F)(F)F)C(F)(F)F . Reported molar heat capacity at constant pressure?
[A] 524.3

----------
- Protocol conditions: Crystal; DTA
Items are presented alongside their recorded Normal melting temperature.
Your answer is read as °C, so omit the unit and give the number.

Some solved entries appear below for comparison.
[[record]]
molecule = "CCCCn1cc[n+](C)c1C.F[B-](F)(F)F [1-butyl-2,3-dimethylimidazolium tetrafluoroborate]"
units_symbol = "°C"
reported = 37.0

[[record]]
molecule = "CCn1cc[n+](C)c1C.O=S(=O)([N-]S(=O)(=O)C(F)(F)F)C(F)(F)F"
units_symbol = "°C"
reported = 25.0

[[record]]
molecule = "CCCCn1cc[n+](C)c1.O=S(=O)([O-])C(F)(F)F [1-butyl-3-methylimidazolium trifluoromethanesulfonate]"
units_symbol = "°C"
reported = 13.0

[[record]]
molecule = "CCCCn1cc[n+](C)c1.N#CN=C=[N-] [1-butyl-3-methylimidazolium dicyanamide]"
units_symbol = "°C"
reported = -6.0

[[record]]
molecule = "CCCCn1cc[n+](C)c1.F[P-](F)(F)(F)(F)F [1-butyl-3-methylimidazolium hexafluorophosphate]"
units_symbol = "°C"
reported = 11.0


Let us examine a further case.
[Q] Item under review: CCCC[n+]1ccn(C)c1.O=S(=O)([N-]S(=O)(=O)C(F)(F)F)C(F)(F)F . Reported Normal melting temperature?
[A] -2.0

----------
- Protocol conditions: Glass; DTA
Items are presented alongside their recorded Glass transition temperature.
Your answer is read as °C, so omit the unit and give the number.

[[record]]
compound = "CCCCn1cc[n+](C)c1.[Cl-] [1-butyl-3-methylimidazolium chloride]"
reported_endpoint = "Glass transition temperature"
reported = -69.0

[[record]]
compound = "CCCCn1cc[n+](C)c1.F[B-](F)(F)F [1-butyl-3-methylimidazolium tetrafluoroborate]"
reported_endpoint = "Glass transition temperature"
reported = -85.0

[[record]]
compound = "CCCCn1cc[n+](C)c1C.F[B-](F)(F)F [1-butyl-2,3-dimethylimidazolium tetrafluoroborate]"
reported_endpoint = "Glass transition temperature"
reported = -68.0


[Q] Item under review: CCC[n+]1ccn(C)c1C.O=S(=O)([N-]S(=O)(=O)C(F)(F)F)C(F)(F)F . Reported Glass transition temperature?
[A] -82.0

[Q] Item under review: CCCC[n+]1ccn(C)c1.O=S(=O)([N-]S(=O)(=O)C(F)(F)F)C(F)(F)F . Reported Glass transition temperature?
[A] -86.0

[Q] Item under review: CCCCn1cc[n+](C)c1.F[P-](F)(F)(F)(F)F [1-butyl-3-methylimidazolium hexafluorophosphate] . Reported Glass transition temperature?
[A] -76.0

[Q] Item under review: CCn1cc[n+](C)c1.O=S(=O)([N-]S(=O)(=O)C(F)(F)F)C(F)(F)F . Reported Glass transition temperature?
[A] -92.0

[Q] Item under review: CCCCn1cc[n+](C)c1.[Br-] [1-butyl-3-methylimidazolium bromide] . Reported Glass transition temperature?
[A] -50.0

[Q] Item under review: CCCCn1cc[n+](C)c1.N#CN=C=[N-] [1-butyl-3-methylimidazolium dicyanamide] . Reported Glass transition temperature?
[A] -90.0

[Q] Item under review: CCCCn1cc[n+](C)c1C.F[P-](F)(F)(F)(F)F [1-butyl-2,3-dimethylimidazolium hexafluorophosphate] . Reported Glass transition temperature?
[A] -58.0

----------
- Assay name: molar heat capacity at constant pressure
- Protocol conditions: 323.15 K; 101.33 kPa; Liquid; Small sample (50 mg) DSC
Under this convention, True denotes molar heat capacity at constant pressure strictly below 400 J/K/mol and False denotes molar heat capacity at constant pressure at or above 400 J/K/mol.

[Q] Problem: For the compound CCCCn1cc[n+](C)c1.[Cl-] [1-butyl-3-methylimidazolium chloride] , is molar heat capacity at constant pressure under 400 J/K/mol?
[A] True

[Q] Problem: For the compound CCCCn1cc[n+](C)c1.N#CN=C=[N-] [1-butyl-3-methylimidazolium dicyanamide] , is molar heat capacity at constant pressure under 400 J/K/mol?
[A] True

[Q] Problem: For the compound CCCC[n+]1ccn(C)c1.O=S(=O)([N-]S(=O)(=O)C(F)(F)F)C(F)(F)F , is molar heat capacity at constant pressure under 400 J/K/mol?
[A] False

----------
- Assay name: molar heat capacity at constant pressure
- Protocol conditions: 323.15 K; 101.33 kPa; Liquid; Small sample (50 mg) DSC
± gives the expanded uncertainty stated by the source.
Items are presented alongside their recorded molar heat capacity at constant pressure.
For clarity, give the value followed by its unit.

Some solved entries appear below for comparison.
[[record]]
compound = "CCCCn1cc[n+](C)c1.F[P-](F)(F)(F)(F)F [1-butyl-3-methylimidazolium hexafluorophosphate]"
reported = "405.1 ± 8.1 J/K/mol"

[[record]]
compound = "CCC[n+]1ccn(C)c1C.O=S(=O)([N-]S(=O)(=O)C(F)(F)F)C(F)(F)F"
reported = "558.7 ± 11 J/K/mol"

[[record]]
compound = "CCCCn1cc[n+](C)c1.O=S(=O)([O-])C(F)(F)F [1-butyl-3-methylimidazolium trifluoromethanesulfonate]"
reported = "423.1 ± 8.5 J/K/mol"

[[record]]
compound = "CCn1cc[n+](C)c1.O=S(=O)([N-]S(=O)(=O)C(F)(F)F)C(F)(F)F"
reported = "532.2 ± 11 J/K/mol"

[[record]]
compound = "CCn1cc[n+](C)c1C.O=S(=O)([N-]S(=O)(=O)C(F)(F)F)C(F)(F)F"
reported = "498.8 ± 10 J/K/mol"

[[record]]
compound = "CCCCn1cc[n+](C)c1C.F[P-](F)(F)(F)(F)F [1-butyl-2,3-dimethylimidazolium hexafluorophosphate]"
reported = "449.1 ± 9 J/K/mol"

[[record]]
compound = "CCCCn1cc[n+](C)c1.[Br-] [1-butyl-3-methylimidazolium bromide]"
reported = "323.6 ± 14 J/K/mol"


Let us examine a further case.
[Q] Item under review: CCCCn1cc[n+](C)c1.F[B-](F)(F)F [1-butyl-3-methylimidazolium tetrafluoroborate] . Reported molar heat capacity at constant pressure?
[A] 358 ± 7.2 J/K/mol
